Below, each of the binders is paired with its reported BaF3-cyno αvβ5 Cell adhesion to vitronectin, Fold chg. (against mouse chimeric ALULA) value.
target: cynomolgus monkey αvβ5 expressed on BaF3 cells (cynomolgus monkey, UniProt A0A2K5WCD3 31-1048; A0A2K5UEB4 24-799); experiment: cell-based or functional assay
Number only, in fold; omit the unit.

Known BaF3-cyno αvβ5 Cell adhesion to vitronectin, Fold chg. (against mouse chimeric ALULA) results, listed for orientation:
VH2/VL2 Agly-IgG4.P (S228P)/IgG1 (N297Q) (antibody, V domains shown, also called VH2/VL2 (Agly-IgG4P/G1); H2/L2) VH: EVQVVQSGGGLVKPGESLRLSCAASGYTFTSYWMHWVKQAPGKGLEWVGAIYPGNSDTSYNQKFKGKFTISADTSSNTAYLQMNSLKTEDTAVYYCTTTTYGYDWFAYWGQGTLVTVSS VL: NIQMTQSPSSLSASVGDRVTMSCKSSQSVLYSSNQKNYLAWYQQKPGKSPKLLIYWASTRESGVPDRFTGSGSGTDFTLTISSLQPEDFATYYCHQYLSSLTFGQGTKLEIKR : 1
VH4/VL0 Agly-IgG4.P (S228P)/IgG1 (N297Q) (antibody, V domains shown, also called VH4/VL0 (Agly-IgG4P/G1); H4/L0) VH: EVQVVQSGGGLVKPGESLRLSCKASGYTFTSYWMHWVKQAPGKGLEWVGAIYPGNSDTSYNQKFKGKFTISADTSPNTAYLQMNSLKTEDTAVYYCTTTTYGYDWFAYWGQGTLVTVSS VL: DIQMTQSPSSVSASVGDRVTITCKSSQSVLYSSNQKNYLAWYQQKPGKAPKLLIYWASTRESGVPSRFSGSGSGTDFTLTISSLQPEDFATYYCHQYLSSLTFGQGTKVEIKR : 0.7

Measured BaF3-cyno αvβ5 Cell adhesion to vitronectin, Fold chg. (against mouse chimeric ALULA), VH5/VL2 Agly-IgG4.P (S228P)/IgG1 (N297Q) (antibody, V domains shown, also called VH5/VL2 (Agly-IgG4P/G1); H5/L2) VH: EVQVQQSGGGLVKPGGSLRLSCKASGYTFTSYWMHWVKQAPGKGLEWVGAIYPGNSDTSYNQKFKGKATLSAVTSPNTAYLQMNSLKTEDTAVYYCTTTTYGYDWFAYWGQGTLVTVSS VL: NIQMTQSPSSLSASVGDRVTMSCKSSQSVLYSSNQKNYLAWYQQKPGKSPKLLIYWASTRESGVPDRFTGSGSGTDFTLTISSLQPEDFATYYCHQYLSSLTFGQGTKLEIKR : 1

Measured BaF3-cyno αvβ5 Cell adhesion to vitronectin, Fold chg. (against mouse chimeric ALULA), ALULA-H4/L2-IgG4.P(S228P)/IgG1(N297Q) (antibody, V domains shown, Hybrid aglycosylated IgG4.P (S228P)/IgG1 (N297Q) heavy chain, human kappa light chain; also called VH4/VL2 (Agly-IgG4P/G1); H4/L2 antibody) VH: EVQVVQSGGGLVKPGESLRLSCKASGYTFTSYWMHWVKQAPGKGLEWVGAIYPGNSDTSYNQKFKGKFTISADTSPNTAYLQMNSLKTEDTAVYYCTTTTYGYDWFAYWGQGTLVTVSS VL: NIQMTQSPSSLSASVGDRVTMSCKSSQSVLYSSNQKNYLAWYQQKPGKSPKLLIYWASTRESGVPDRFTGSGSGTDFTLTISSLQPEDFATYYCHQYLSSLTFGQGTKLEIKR : 0.5
